- Assay System: Ac-VQIINK-NH2 (Homo sapiens)
- Construct: made in house; host or cells: chemical peptide synthesis
- Assay Explanation: Inhibition of VQIINK aggregation with peptide inhibitors (ThT)
- Assay type: biochemical
pIC50: −log10 of the molar value. Peptide text beside a SMILES is read from it.
Parameter: pIC50

compound="CC[C@H](C)[C@H](NC(=O)[C@H](CCCNC(=N)N)NC(=O)[C@@H](NC(=O)[C@H](Cc1c[nH]c2ccccc12)NC(=O)[C@@H](N)Cc1c[nH]c2ccccc12)[C@@H](C)CC)C(=O)N[C@@H](CCCNC(=N)N)C(=O)N[C@@H](Cc1ccc(O)cc1)C(=O)N[C@@H](Cc1c[nH]c2ccccc12)C(=O)N[C@@H](CC(C)C)C(=O)O [compound 65] (H-WWIRIRYWL-OH)" assay_system="Ac-VQIINK-NH2 (Homo sapiens)" val=5.31

Where do these numbers come from? They come from patent US20230137562A1.
